Origin of measurements: patent US5858992A

System: Clostridium perfringens JCM 3816
Format: cell-based
Conditions: 0.5 w/v % saccharide in PYF broth, 37° C., 96 hours; free of sugar: -
Endpoint label: Judgement of assimilation (turbidity at 750 nm, ×5)

Molecule	Value
O=C[C@H](O)[C@@H](O)[C@H](O)[C@H](O)CO [glucose, reference compound]	+++ (0.3 or higher)
OC[C@H]1O[C@H](O[C@H]2O[C@H](CO)[C@@H](O)[C@H](O)[C@H]2O)[C@H](O)[C@@H](O)[C@@H]1O [Trehalose, α,α-trehalose, reference compound]	+++ (0.3 or higher)

----------
Test: in vitro
Details: gastric acid
I'd be grateful if you could share measured degraded for these entries.
Report only the number, with the unit % understood.

input: Fill blank: measured degraded of the compound OC[C@H]1O[C@H](O[C@H]2[C@H](O)[C@@H](O)C(O)O[C@@H]2CO)[C@H](O)[C@@H](O)[C@@H]1O (mixture of isomers) [Maltose, reference compound] is ____.
output: 0

input: Fill blank: measured degraded of the compound OC[C@H]1O[C@H](OC[C@H]2OC(O)[C@H](O)[C@@H](O)[C@@H]2O)[C@H](O)[C@@H](O)[C@@H]1O (some centres unmarked) [Isomaltose, reference compound] is ____.
output: 0

----------
I'd be grateful if you could share measured Coloration degree (at a wavelength of 480 nm) for these entries.
Assay: Maillard reaction (coloration with glycine)
Assay type: physicochemical
Conditions: 10 w/v % saccharide, one w/v % glycine, 50 mM phosphate buffer pH 7.0, 100° C. for 90 min, 1-cm light-path cell
API doc: respond with a numeric literal and nothing else, no unit.

input: Fill blank: measured Coloration degree (at a wavelength of 480 nm) of the molecule OC[C@H]1O[C@H](OC[C@H]2OC(O)[C@H](O)[C@@H](O)[C@@H]2O)[C@H](O)[C@@H](O)[C@@H]1O (stereo partly shown) [Isomaltose, reference compound] is ____.
output: 0.938

input: Fill blank: measured Coloration degree (at a wavelength of 480 nm) of the molecule OC[C@H]1O[C@H](OC[C@H]2O[C@H](OC[C@H]3O[C@H](OC[C@H]4OC(O)[C@H](O)[C@@H](O)[C@@H]4O)[C@H](O)[C@@H](O)[C@@H]3O)[C@H](O)[C@@H](O)[C@@H]2O)[C@H](O)[C@@H](O)[C@@H]1O (stereo partly shown) [Isomaltotetraose, isomaltotetraose, reference compound] is ____.
output: 0.495

input: Fill blank: measured Coloration degree (at a wavelength of 480 nm) of the molecule OC[C@H]1O[C@H](O[C@H]2O[C@H](CO)[C@@H](O)[C@H](O)[C@H]2O)[C@H](O)[C@@H](O)[C@@H]1O [Trehalose, α,α-trehalose, reference compound] is ____.
output: 0.007

input: Fill blank: measured Coloration degree (at a wavelength of 480 nm) of the molecule OC[C@H]1O[C@H](OC[C@H]2O[C@H](OC[C@H]3OC(O)[C@H](O)[C@@H](O)[C@@H]3O)[C@H](O)[C@@H](O)[C@@H]2O)[C@H](O)[C@@H](O)[C@@H]1O (stereo partly shown) [Isomaltotriose, isomaltotriose, reference compound] is ____.
output: 0.642
